system-under-test: FLAG-tagged human LRRK2 with G2019S mutation (Homo sapiens, UniProt Q5S007, G2019S)
Sequence (Q5S007 whole entry G2019S): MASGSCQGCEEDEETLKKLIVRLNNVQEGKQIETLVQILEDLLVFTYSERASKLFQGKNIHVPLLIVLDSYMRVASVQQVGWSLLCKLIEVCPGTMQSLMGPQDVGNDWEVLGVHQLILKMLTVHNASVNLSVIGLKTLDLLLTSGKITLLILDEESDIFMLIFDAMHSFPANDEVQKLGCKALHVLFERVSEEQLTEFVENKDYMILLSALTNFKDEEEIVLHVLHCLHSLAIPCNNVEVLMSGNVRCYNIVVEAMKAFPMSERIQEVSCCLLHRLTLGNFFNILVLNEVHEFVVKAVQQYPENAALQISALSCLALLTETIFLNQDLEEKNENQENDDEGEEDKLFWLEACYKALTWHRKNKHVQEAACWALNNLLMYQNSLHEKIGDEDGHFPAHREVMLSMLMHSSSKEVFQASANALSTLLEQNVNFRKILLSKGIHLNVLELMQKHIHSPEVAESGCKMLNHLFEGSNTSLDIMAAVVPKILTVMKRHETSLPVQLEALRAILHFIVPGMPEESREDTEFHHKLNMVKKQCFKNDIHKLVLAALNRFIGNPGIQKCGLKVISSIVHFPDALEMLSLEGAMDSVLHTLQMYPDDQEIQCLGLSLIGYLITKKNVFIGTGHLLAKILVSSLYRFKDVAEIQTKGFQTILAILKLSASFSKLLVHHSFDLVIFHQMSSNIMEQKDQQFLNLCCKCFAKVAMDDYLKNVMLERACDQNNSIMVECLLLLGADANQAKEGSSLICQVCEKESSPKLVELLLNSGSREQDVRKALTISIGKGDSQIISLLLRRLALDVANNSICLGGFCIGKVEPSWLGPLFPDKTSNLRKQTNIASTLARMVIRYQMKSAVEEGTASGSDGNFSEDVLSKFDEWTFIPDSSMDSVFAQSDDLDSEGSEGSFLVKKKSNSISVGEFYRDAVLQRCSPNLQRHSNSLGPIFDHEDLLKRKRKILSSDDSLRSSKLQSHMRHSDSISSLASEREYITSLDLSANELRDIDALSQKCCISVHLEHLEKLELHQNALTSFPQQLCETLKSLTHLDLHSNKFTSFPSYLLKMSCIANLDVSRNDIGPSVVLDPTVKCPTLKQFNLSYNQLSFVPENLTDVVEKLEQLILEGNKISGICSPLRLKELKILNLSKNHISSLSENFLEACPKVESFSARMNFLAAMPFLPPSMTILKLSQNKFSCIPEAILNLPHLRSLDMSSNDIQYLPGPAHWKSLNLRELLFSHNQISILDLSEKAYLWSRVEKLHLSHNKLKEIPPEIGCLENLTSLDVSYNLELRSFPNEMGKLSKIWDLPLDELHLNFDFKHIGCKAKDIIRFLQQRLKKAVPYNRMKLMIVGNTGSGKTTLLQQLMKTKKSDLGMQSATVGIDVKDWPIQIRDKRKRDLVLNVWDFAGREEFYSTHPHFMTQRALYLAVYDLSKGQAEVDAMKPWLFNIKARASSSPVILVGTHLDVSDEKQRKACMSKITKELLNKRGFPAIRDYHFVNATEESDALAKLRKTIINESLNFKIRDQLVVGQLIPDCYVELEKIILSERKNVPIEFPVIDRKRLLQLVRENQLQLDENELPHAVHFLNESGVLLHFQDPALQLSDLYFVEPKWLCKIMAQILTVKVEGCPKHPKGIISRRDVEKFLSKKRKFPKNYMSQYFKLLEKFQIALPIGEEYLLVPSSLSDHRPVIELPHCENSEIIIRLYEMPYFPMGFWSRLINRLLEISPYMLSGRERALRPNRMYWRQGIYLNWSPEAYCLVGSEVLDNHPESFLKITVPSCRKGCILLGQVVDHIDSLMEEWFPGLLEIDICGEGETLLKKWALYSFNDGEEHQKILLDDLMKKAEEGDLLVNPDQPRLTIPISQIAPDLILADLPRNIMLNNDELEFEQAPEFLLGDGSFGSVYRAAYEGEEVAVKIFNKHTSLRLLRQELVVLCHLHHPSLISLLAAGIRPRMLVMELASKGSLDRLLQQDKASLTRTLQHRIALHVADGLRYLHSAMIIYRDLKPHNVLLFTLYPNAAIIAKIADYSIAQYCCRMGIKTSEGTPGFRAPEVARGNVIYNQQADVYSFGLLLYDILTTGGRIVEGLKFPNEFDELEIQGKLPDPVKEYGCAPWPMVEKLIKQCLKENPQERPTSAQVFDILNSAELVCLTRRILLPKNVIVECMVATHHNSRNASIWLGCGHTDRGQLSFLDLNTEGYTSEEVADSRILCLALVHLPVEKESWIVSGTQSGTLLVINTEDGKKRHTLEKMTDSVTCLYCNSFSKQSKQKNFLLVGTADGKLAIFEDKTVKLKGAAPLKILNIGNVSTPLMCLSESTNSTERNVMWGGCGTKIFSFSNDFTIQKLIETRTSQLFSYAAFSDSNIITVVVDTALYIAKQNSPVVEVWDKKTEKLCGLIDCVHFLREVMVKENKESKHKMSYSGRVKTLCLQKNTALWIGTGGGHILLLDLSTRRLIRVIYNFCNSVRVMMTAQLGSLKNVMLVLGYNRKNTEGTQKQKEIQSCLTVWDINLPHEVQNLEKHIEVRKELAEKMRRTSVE
test-summary: Inhibition of pSer935 in HEK293 cells with expressed G2019S LRRK2 (Biological Example 4)
condition-info: transfected 293T cells, 90 minutes compound treatment, MSD readout; read-out: HEK293T LRRK2 G2019S pS935
value-type: IC50 (nM)

A selection of reference data follows.
CCNc1nc(Nc2cn([C@H]3C[C@H]3C(N)=O)nc2C2CC2)ncc1C(F)(F)F (single isomer, unassigned) = 1.83
Cc1nn(C2C[C@@]2(C)C(N)=O)cc1Nc1ncc(C(F)(F)F)c(NC2(C)CC2)n1 (single isomer, unassigned) = 1.79
CCNc1nc(Nc2cn([C@@H]3C[C@@H]3C(N)=O)nc2C2CC2)ncc1C(F)(F)F (single isomer, unassigned) = 4.94
Cc1nn(C2C[C@]2(C)C(N)=O)cc1Nc1ncc(C(F)(F)F)c(NC2(C)CC2)n1 (single isomer, unassigned) = 3

I: CNc1nc(Nc2cn([C@@H]3C[C@@H]3C(N)=O)nc2C2CC2)ncc1C(F)(F)F (single isomer, unassigned)
II: CCNc1nc(Nc2cn([C@@H]3C[C@]3(C)C(N)=O)nc2C2CC2)ncc1C(F)(F)F (single isomer, unassigned)
## Input In terms of reported IC50, does I or II have the smaller number? # reply format: chosen label
## Output I
(I: 3.06 nM, II: 5.12 nM)

Hello, the source for this data is patent US12358896B2, in case you need it.
